procedure_text: Tolerability in Sprague-Dawley rats: liver function (Example 44)
Format: in vivo
study_conditions: 50 mg/kg s.c. twice per week for 6 weeks, plasma
Strand notation (5' to 3'): a small letter for the sugar, then the base; units joined by * are phosphorothioate-linked, units joined directly phosphodiester-linked; [ ] holds rarer units or linkages, { } end groups; capitals alone tell only the bases. e = 2'-O-(2-methoxyethyl) (MOE); [5mC] = 5-methylcytosine; d = 2'-deoxy (DNA)
Kindly return T if reported AST is no lower than 100 IU/L; return F if it is lower.

substance	label
ISIS 449708: 3-8-3, 4-8-4, 2-10-2, 3-10-3 or 4-10-4 MOE microwalk gapmer (Table 46) (antisense eA*e[5mC]*eA*dG*dT*dT*dT*d[5mC]*dT*dG*dG*e[5mC]*eA*eG)	F
ISIS 449709: 3-8-3, 4-8-4, 2-10-2, 3-10-3 or 4-10-4 MOE microwalk gapmer (Table 46) (antisense eG*e[5mC]*eA*e[5mC]*dA*dG*dT*dT*dT*d[5mC]*dT*dG*dG*d[5mC]*eA*eG*eG*e[5mC])	T
ISIS 449710: 3-8-3, 4-8-4, 2-10-2, 3-10-3 or 4-10-4 MOE microwalk gapmer (Table 46) (antisense e[5mC]*eA*e[5mC]*dA*dG*dT*dT*dT*d[5mC]*dT*dG*dG*d[5mC]*eA*eG*eG)	T
ISIS 449707: 3-8-3, 4-8-4, 2-10-2, 3-10-3 or 4-10-4 MOE microwalk gapmer (Table 46) (antisense e[5mC]*eA*e[5mC]*eA*dG*dT*dT*dT*d[5mC]*dT*dG*dG*e[5mC]*eA*eG*eG)	T
ISIS 449711: 3-8-3, 4-8-4, 2-10-2, 3-10-3 or 4-10-4 MOE microwalk gapmer (Table 46) (antisense eA*e[5mC]*dA*dG*dT*dT*dT*d[5mC]*dT*dG*dG*d[5mC]*eA*eG)	T

====

System: blood coagulation
procedure_text: PT and aPTT assay in cynomolgus monkeys (Example 46)
Assay type: in vivo
study_conditions: Day 31; platelet poor plasma; relative to PBS group
Strand notation (5' to 3'): a small letter for the sugar, then the base; units joined by * are phosphorothioate-linked, units joined directly phosphodiester-linked; [ ] holds rarer units or linkages, { } end groups; capitals alone tell only the bases. e = 2'-O-(2-methoxyethyl) (MOE); [5mC] = 5-methylcytosine; d = 2'-deoxy (DNA)

substance	PT ratio (INR)
ISIS 449709: 3-8-3, 4-8-4, 2-10-2, 3-10-3 or 4-10-4 MOE microwalk gapmer (Table 46) (antisense eG*e[5mC]*eA*e[5mC]*dA*dG*dT*dT*dT*d[5mC]*dT*dG*dG*d[5mC]*eA*eG*eG*e[5mC])	0.95
ISIS 449711: 3-8-3, 4-8-4, 2-10-2, 3-10-3 or 4-10-4 MOE microwalk gapmer (Table 46) (antisense eA*e[5mC]*dA*dG*dT*dT*dT*d[5mC]*dT*dG*dG*d[5mC]*eA*eG)	0.98

====

// values below are reported MCV
procedure_text: Hematology assays in cynomolgus monkeys (Example 45)
Assay type: in vivo
study_conditions: day 22; escalating dose regimen

substance	unit_label	MCV
ISIS 417002: MOE gapmer, nucleobases 1275 to 1318 of SEQ ID NO: 1 (Table 8) (antisense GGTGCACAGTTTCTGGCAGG; MOE gapmer, wing and gap sizes not given here)	fL	79
ISIS 416864: MOE gapmer, nucleobases 1275 to 1318 of SEQ ID NO: 1 (Table 8) (antisense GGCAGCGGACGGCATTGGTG; MOE gapmer, wing and gap sizes not given here)	fL	79
ISIS 416838: MOE gapmer, nucleobases 1018 to 1042 of SEQ ID NO: 1 (Table 6) (antisense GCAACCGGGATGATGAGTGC; MOE gapmer, wing and gap sizes not given here)	fL	80
ISIS 416858: MOE gapmer, nucleobases 1275 to 1318 of SEQ ID NO: 1 (Table 8) (antisense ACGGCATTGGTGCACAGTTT; MOE gapmer, wing and gap sizes not given here)	fL	77
ISIS 416850: MOE gapmer, nucleobases 1275 to 1318 of SEQ ID NO: 1 (Table 8) (antisense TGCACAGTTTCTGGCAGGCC; MOE gapmer, wing and gap sizes not given here)	fL	83
